Tested on: NCI-H522
Test summary: NCI tumour cell line growth inhibition, 48 h
Active and inactive are the calls of the source. Cut-off read from the data, not from the text of the source: active = GI50 up to about 1.1 µM and inactive = higher. Where a SMILES comes first, the peptide text is derived from it. [ ]: non-standard residue; d: D form. The star is where a group is joined. ξ: configuration not given here. Phe(4-NO2) = N[CH](Cc1ccc([N+](=O)[O-])cc1)C(=O)O; ONb = O=[N+]([O-])c1ccc(CO*)cc1; ξD = NC(CC(=O)O)C(=O)O; Boc = CC(C)(C)OC(=O)*; Aib = CC(C)(N)C(=O)O; OBn = c1ccc(CO*)cc1
Classes to choose from: active, inactive

Tell me the assay call for `Cc1oc2c(c1C)S(=O)(=O)C(C#N)=C(c1ccccc1)N2` please.
inactive

Look up the recorded call for C[C@@H]1[C@H](c2ccccc2)O[B-]2(c3ccc(Br)cc3)OC(=O)C[N+]12C (stereo not given in full) in this test.
inactive

GET /call?item= Cc1ccc([N+](=O)[O-])cc1NC(=O)/C(=N/NC(=S)NN)C1SC(=S)NC1=O (stereo not given) returns the recorded outcome of this test.
inactive

Recorded test call requested for `Cc1ccc(C(=O)NCc2ccccc2)cc1/N=N/N(C)C`
inactive

Fill in: this test's call for CC(=O)Nc1ccc(C(=O)NN2C(=O)C(Cl)C2c2ccc(O)cc2)cc1 (stereo not given) is ___
inactive

Recorded test call requested for C/N=C1\CC2c3cc(OC)c(OC)cc3CCN2C2=C1C(=O)CC(C)(C)C2 (stereo not given)
inactive

Tell me the recorded outcome of this test for `CC(C)c1ccccc1NC(=O)/C(Cl)=C1/Sc2ccccc2NC1=O` .
inactive

What was the test verdict on Nc1nc(N)c2ncn(CCCC(c3ccccc3)P(=O)(O)O)c2n1 (stereo not given) ?
inactive

For CC(=O)NC(CCCCN)C(=O)NCc1ccccc1 (stereo not given) , which call appears in the assay record?
inactive

Called result for `NCCC1(N)CCNCC1`
inactive

Please state the recorded outcome for this compound: CC(C)CC(NC(=O)OC(C)(C)C)C(=O)NC(CCC(=O)OCc1ccc([N+](=O)[O-])cc1)C(=O)OCc1ccc([N+](=O)[O-])cc1 (stereo not drawn) (Boc-Leu-Glu(ONb)-ONb; configuration not given here)
inactive

Hi, sorry to bother you, what did the test record for CC(C)(C)OC(=O)NC(CC(=O)OCc1ccccc1)C(=O)NC(C)(C)C(N)=O (stereo not given) (Boc-[ξD](OBn)-[Aib]-NH2) ?
inactive

Hi team, can someone confirm the assay call for `CN(N=O)C(=O)Nc1c[nH]c(=O)[nH]c1=O` ?
inactive

Query: recorded result category for O=C1CSC(c2c(O)ccc3ccccc23)N1n1c(S)nnc(/C=C/c2c(O)ccc3ccccc23)c1=O (stereo not given) in this test
inactive

Hi, sorry to bother you, what did the test record for `CC(C)C[C@H]1[C@@H](OCc2ccccc2)COS(=O)(=O)N1[C@H](C)c1ccccc1` ?
inactive

Outcome? CCOC(=O)N/N=C/C1=NN(C(=O)OCC)[S+]([O-])C1C (stereo not given)
inactive

How was C/C=C(\C)c1cc(=O)c2c(C)cc3c(c2o1)C(OC)(OC(C)=O)c1c(O)c(C2CC(C)(N(C)C)C(OC(C)=O)C(C)O2)cc(C2CC(N(C)C)C(OC(C)=O)C(C)O2)c1C3=O (stereo not given) classified in this test?
active

What classification did `COc1cc2ccc1NC(=O)N1CCN(CC1)C(=O)Nc1ccc(cc1OC)-c1ccc(c(OC)c1)NC(=O)N1CCN(CC1)C(=O)Nc1ccc-2cc1OC` end up with in this test?
inactive

Record lookup: outcome of this test for `O=c1ccn2n1CCCCC2` ?
inactive

Would you mind telling me which call this test gave COC(=O)CCC(NC(=O)C(CCC(=O)OC)NC(=O)C(CCC(=O)OC)NC(=O)C(CCC(=O)OC)NC(=O)C(CCC(=O)OC)NC(=O)C(Cc1ccc([N+](=O)[O-])cc1)NC(=O)C(CCC(=O)OC)NC(=O)C(CCC(=O)OC)NC(=O)C(CCC(=O)OC)NC(=O)C(CCC(=O)OC)NC(=O)C(CCC(=O)OC)NC(C)=O)C(N)=O (stereo not given) (Ac-E(OMe)E(OMe)E(OMe)E(OMe)E(OMe)[Phe(4-NO2)]E(OMe)E(OMe)E(OMe)E(OMe)E(OMe)-NH2; configuration not given here) ?
inactive

What outcome does the record of this test show for `C[n+]1c(Cl)cn2c3nc4ccccc4nc3c([O-])c(C#N)c21` ?
inactive

What is the recorded call for this compound in the test? `O=C(/C=C1\Sc2ccccc2N=C1CC(=O)c1ccccc1)c1ccccc1`
inactive

Tell me the recorded outcome of this test for CN1CCCCC1CCN1c2ccccc2Sc2ccc([S+](C)[O-])cc21 (stereo not given) .
inactive

Lab log entry: `COc1cc(/C=C2\[C@H]3c4c(c(OC)c(C)c(OC)c4OC)C[C@@H](C(=O)N2Cc2ccccc2)N3C(=O)OCC(C)C)c(OC)c(C)c1OC` — outcome as called in the assay?
inactive

In this assay, the call recorded for CCC12CCCN3CCc4c(n(c5ccccc45)C(O)(C(=O)OC)C1)C32 (stereo not given) was what?
inactive

Recorded test outcome, item `O=C1NCN(c2ccccc2)C12CCN(CCCN1CCN(CCOC(c3ccc(F)cc3)c3ccc(F)cc3)CC1)CC2`
inactive

Any idea what this test logged for `CC(/C=N/N=C1NCCCN1)=N\N=C1NCCCN1` ?
inactive

Which result was noted for this compound in the test: `O=c1/c(=C/c2ccccc2F)sc2nc3ccccc3n12`
inactive

In this assay, the call recorded for `O=C1c2cccc3cccc(c23)C(=O)N1CCCNCCCCNCCCNCCCN1C(=O)c2cccc3cccc(c23)C1=O` was what?
active

// return assay outcome for `Cc1c(N=C(S)Nc2ccc(Cl)cc2)c(=O)n(-c2ccccc2)n1C`
inactive

====

System: A549
Test summary: NCI tumour cell line growth inhibition, 48 h
Activity calls are given as the source filed them. Cut-off read from the data, not from the text of the source: active = GI50 up to about 1.1 µM and inactive = higher.
Provide the recorded GI50 for the entries that follow.

Record request: GI50 value, item CC(C)=CCCC(C)C1=C(O)C(=O)C(C)=CC1=O (stereo not drawn)
45.5 µM (inactive)

What measured GI50 goes with CC(=O)N1c2ccccc2C(C)C1c1[nH]c2ccccc2c1C (stereo not drawn) ?
23.4 µM (inactive)

// query GI50 value for entry `COC(=O)Nc1nc2cc(Br)ccc2[nH]1`
50.8 µM (inactive)

====

Tested on: KM12
Test summary: NCI tumour cell line growth inhibition, 48 h
Calls of active or inactive are those of the source. Cut-off read from the data, not from the text of the source: active = GI50 up to about 1.1 µM and inactive = higher. Where a SMILES comes first, the peptide text is derived from it. [ ]: non-standard residue; d: D form. Phe(4-NO2) = N[CH](Cc1ccc([N+](=O)[O-])cc1)C(=O)O
Observed property: GI50

Which GI50 is reported for this molecule? CCCCCCCCCC/C=C/CC(=O)SCCNC(=O)CCNC(=O)[C@@H](O)C(C)(C)COP(=O)(O)OP(=O)(O)OCC1OC(n2cnc3c(N)ncnc32)C(O)C1OP(=O)(O)O (some centres undefined)
> 10 µM (inactive)

Fill blank: measured GI50 of the molecule `O=c1[nH]cc(OCC(F)(F)F)c(=O)[nH]1` is ____.
> 100 µM (inactive)

May I ask what GI50 has been recorded for COC(=O)CCC(NC(=O)C(CCC(=O)OC)NC(=O)C(CCC(=O)OC)NC(=O)C(CCC(=O)OC)NC(=O)C(CCC(=O)OC)NC(=O)C(Cc1ccc([N+](=O)[O-])cc1)NC(=O)C(CCC(=O)OC)NC(=O)C(CCC(=O)OC)NC(=O)C(CCC(=O)OC)NC(=O)C(CCC(=O)OC)NC(=O)C(CCC(=O)OC)NC(C)=O)C(N)=O (centres undefined) (Ac-E(OMe)E(OMe)E(OMe)E(OMe)E(OMe)[Phe(4-NO2)]E(OMe)E(OMe)E(OMe)E(OMe)E(OMe)-NH2; configuration not given here) ?
> 100 µM (inactive)

Data request, read-out GI50, for `Clc1nc(Cl)nc(Nc2cccc3ccccc23)n1`
> 10 µM (inactive)

Form field: reported GI50 of C[C@@H]1[C@H](c2ccccc2)O[B-]2(c3ccc(Br)cc3)OC(=O)C[N+]12C (some centres undefined)
> 100 µM (inactive)

Please report the recorded GI50 for `NN/C(Cc1ccccc1)=N\NO` .
17.4 µM (inactive)

Dear colleague, I am looking for the recorded GI50 of the following molecule: `C[n+]1c(Cl)cn2c3nc4ccccc4nc3c([O-])c(C#N)c21`
> 10 µM (inactive)

What value of GI50 has been recorded for this entry: `Cc1cc(C)nc(NS(=O)(=O)c2ccc(NNc3c4ccccc4nc4c(C(=O)Nc5ccc(S(=O)(=O)Nc6ncccn6)cc5)cccc34)cc2)n1`
34.5 µM (inactive)

What measured GI50 goes with `c1ccc(-c2cc(-c3cccs3)c(-c3cccs3)o2)cc1` ?
48.4 µM (inactive)

====

Test system: HL-60
Test summary: NCI tumour cell line growth inhibition, 48 h
Active and inactive are the calls of the source. Cut-off read from the data, not from the text of the source: active = GI50 up to about 1.1 µM and inactive = higher.
Could you please pick one outcome from this set? active, inactive

Recorded call for `Cc1c2cc[n+](Cc3ccc(I)cc3)cc2c(C)c2c1[nH]c1ccccc12` ?
active

I would be grateful if you could indicate the recorded call for `N=C(N)NCCCC(=O)O` .
inactive

Which result was noted for this molecule in the test: C=CCN(N=O)C(=O)N(CCC)CCCCC(NC(C)=O)C(=O)NCc1ccccc1 (configuration not stated)
inactive

Called result for `S=c1sc2c(Cl)nc(Cl)nc2n1-c1ccccc1`
inactive

Outcome logged for `Cc1ccc(C(=O)/C=C(O)/C(O)=C/C(=O)c2ccc(C)cc2C)c(C)c1` in this assay:
active

Called result for `COC1=CC(=Nc2c(Cl)cc(Cl)cc2OC(=O)c2ccc([N+](=O)[O-])cc2)C=C(OC)C1=O`
inactive

What was the test verdict on `Cc1cc(S(=O)(=O)NC2=NCCCN2)c(S)cc1Cl` ?
inactive

How was OC1(c2ccccc2)C2CCN(CC2)C1CN1CCOCC1 (configuration not stated) classified in this test?
inactive

Fill in: this test's call for `COc1cc(-c2cccs2)sc1-c1cccs1` is ___
inactive

Outcome? `O=C1C2=C(C3=NCCc4c[nH]c1c43)c1c(Br)cc(Br)cc1CCN2`
inactive

# lookup: test call for CC(C)COC(=O)N1N=NC2C3OC(CC3=O)C21 (configuration not stated)
inactive

Which outcome was assigned to C[C@H](CCC(=O)O[C@@H]1CC[C@@]2(C)C(CC[C@H]3[C@@H]4CC[C@H]([C@H](C)CCc5nc6ccccc6[nH]5)[C@@]4(C)CC[C@@H]32)C1)[C@H]1CC[C@H]2[C@@H]3CCC4C[C@H](O)CC[C@]4(C)[C@H]3CC[C@]12C (some centres not stated) in this test?
inactive

Test call for this molecule, please: C/N=C1\CC2c3cc(OC)c(OC)cc3CCN2C2=C1C(=O)CC(C)(C)C2 (configuration not stated)
inactive

For this molecule, state the assay outcome: CC(=O)N1c2ccccc2C(C)C1c1[nH]c2ccccc2c1C (configuration not stated)
inactive

Any idea what this test logged for `CSc1ncnc2c1ncn2CCC(=O)O` ?
inactive

Outcome logged for `COc1ccc(C=O)c([N+](=O)[O-])c1` in this assay:
inactive

# lookup: test call for `CC(=N/N=C/c1ccccn1)/C(C)=N/N=C(C)/C(C)=N/N=C(C)/C(C)=N/N=C(C)/C(C)=N\N=C\c1ccccn1`
inactive

I'd appreciate the recorded outcome for `NCCC1(N)CCNCC1` from this test.
inactive

GET /call?item= COC(=O)CNC(=O)CCC(C)[C@H]1CCC2C3C(C[C@H](OC(C)=O)[C@@]21C)[C@@]1(C)CCC2(C[C@H]1C[C@H]3OC(C)=O)OOC1(CCCCC1)OO2 (some centres not stated) returns the recorded outcome of this test.
inactive

Lab log entry: `O=c1/c(=C/c2ccccc2F)sc2nc3ccccc3n12` — outcome as called in the assay?
inactive

Kindly provide the recorded test outcome for the following molecule: `CCOC(=O)c1cnn2c1ncc1c(=O)n(NC(N)=O)ccc12`
inactive

Please indicate how the test categorized CC(NCCS(=O)(=O)O)C(=O)O (configuration not stated) .
inactive

So what was the verdict on `Oc1ncc(Cl)c(O)n1` in this test?
inactive

So what was the verdict on `N#Cc1c(-c2ccc(Cl)cc2)c(C#N)c(=O)n(NS(=O)(=O)c2ccccc2)c1S` in this test?
inactive

Could you check what this test reported for `COC(=O)c1c(O)ccc2c1c1c(n2Cc2cccc(C)c2)C(=O)c2ccccc2C1` ?
inactive

Call for entry `O=C(CCCN1CCC(Nc2ccc(F)cc2)(c2nnnn2C2CCCCC2)CC1)c1ccc(F)cc1` :
inactive

Name the outcome recorded for COc1ccc(/N=N/C(=O)NC(CC(C)C)C(=O)NC(Cc2ccccc2)C(=O)O)cc1 (configuration not stated) in the assay.
active

Give the logged outcome of this assay for the following molecule: COC(=O)[C@H](CC(C)C)NC(=O)[C@H](Cc1ccccc1)N1CC2C=CC1C2 (some centres not stated)
inactive

How was `CC(=O)OCc1cc(OC(C)=O)c2cc3c(OC(C)=O)cccc3c(OC(C)=O)c2c1` classified in this test?
inactive

Answer briefly: the call reported for COC(=O)c1c(OC(=O)c2ccccc2)noc1CC(=O)OC1C=CCCC1 (configuration not stated) in this assay.
inactive

Dear all, I need the recorded test outcome for `COC(=O)C1=C(C(=O)OC)SC2(S1)C(C(=O)OC)=C(C(=O)OC)Sc1c2ssc1=O` , thank you.
active

Status in this test for CCOC(=O)CNC1C(NC(C)=O)C(OC)OC2COC(c3ccccc3)OC21 (configuration not stated) ?
inactive
